The reader will find reported pIC50 values listed item by item below.
# Experimental System: GSK3α (GST-full length GSK3α) (Homo sapiens (Human), UniProt P49840)
# Sequence (P49840 whole entry): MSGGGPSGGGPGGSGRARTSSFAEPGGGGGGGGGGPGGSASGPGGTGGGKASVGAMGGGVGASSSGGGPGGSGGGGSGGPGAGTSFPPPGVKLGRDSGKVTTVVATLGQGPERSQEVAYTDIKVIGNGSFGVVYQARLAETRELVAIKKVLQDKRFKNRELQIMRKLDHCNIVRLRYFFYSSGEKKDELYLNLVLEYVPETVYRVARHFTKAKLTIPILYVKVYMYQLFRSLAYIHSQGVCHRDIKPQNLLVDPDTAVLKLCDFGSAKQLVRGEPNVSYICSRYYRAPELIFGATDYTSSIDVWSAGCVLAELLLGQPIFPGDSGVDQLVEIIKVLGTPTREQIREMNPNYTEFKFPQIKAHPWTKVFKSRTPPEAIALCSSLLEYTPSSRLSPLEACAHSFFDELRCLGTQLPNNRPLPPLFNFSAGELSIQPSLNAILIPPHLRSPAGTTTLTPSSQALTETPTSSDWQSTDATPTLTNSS
# Assay Comment: GSK3α TR-FRET kinase assay
# Assay type: biochemical
# Protocol Conditions: 1 nM GSK3α, 4 μM ATP, 30 minute preincubation; geometric mean; read-out: GSK3-A TR-FRET BIOCHEMICAL (TR-FRET); GMean; IC50
pIC50: −log10 of the molar value.

Reference set (2 entries):
[[record]]
compound = "CC[C@@]1(c2cccc(C(F)F)c2)C2=C(CC(C)(C)CC2=O)Nc2n[nH]cc21"
observed_value = "≥ 7.00"

[[record]]
compound = "CCC1(c2cccc(-c3ccncc3F)c2)C2=C(CC(C)(C)NC2=O)Nc2n[nH]cc21 (stereo not shown)"
observed_value = "6.00 to 7.00"


**Q:** Quick check: pIC50 of "CC[C@]1(c2cccc(-c3cnn(C)c3C(F)(F)F)c2)C2=C(CC(C)(C)NC2=O)Nc2n[nH]cc21" ?
**A:** ≥ 7.00

**Q:** Quick check: pIC50 of "CC[C@@]1(c2ccccc2)C2=C(CC3(CC3)CC2=O)Nc2n[nH]cc21" ?
**A:** ≥ 7.00

**Q:** Quick check: pIC50 of "CC[C@]1(c2ccccc2)C2=C(CC(C)(C)[C@H](F)C2=O)Nc2n[nH]cc21" ?
**A:** < 5.30

**Q:** Quick check: pIC50 of "CC[C@]1(c2cccc(C(F)(F)F)c2)C2=C(CCN(c3ccccc3C)C2=O)Nc2n[nH]cc21" ?
**A:** < 5.30

**Q:** Quick check: pIC50 of CC1(C)CC(=O)C2=C(C1)Nc1n[nH]cc1C2(C)c1cc(Cl)ccc1Cl (stereo not shown) ?
**A:** 5.30 to 6.00
